experiment: Phase 1 clinical trial: pharmacokinetics of AZD9833 in plasma; assay type: in vivo, human; conditions: human, plasma; patients, oral QD dosing, across five doses; read-out: median terminal t1/2 (converted)
measured attribute: half-life

What value of half-life has been reported for the following compound? "C[C@@H]1Cc2c(ccc3[nH]ncc23)[C@@H](c2ccc(NC3CN(CCCF)C3)cn2)N1CC(F)(F)F"
12 h
